Experiment: 24 hr in-vivo study: meloxicam plasma concentration and pharmacokinetics after oral (gavage) administration to male rats
Conditions: male, Sprague-Dawley, rat, plasma, po, 1 mg/kg
ENDPOINT: concentration at 0.0833 hour (ng/mL)

{"COMPOUND": "Cc1cnc(NC(=O)C2=C(O)c3ccccc3S(=O)(=O)N2C)s1 [Meloxicam, reference compound]", "ENDPOINT": "concentration at 0.0833 hour", "REPORTED VALUE": 20}

* * *

Experiment: 4 hr in-vivo study: meloxicam plasma concentration after oral delivery to rats
Details: rat, time 15 min
Label scheme for meloxicam plasma concentration: lower than 10 µg/mL is Criterion not met, 10 µg/mL and above is Criterion met.

{"RECORD SMILES": "Cc1cnc(NC(=O)C2=C(O)c3ccccc3S(=O)(=O)N2C)s1.Cc1cnc(NC(=O)C2=C(O)c3ccccc3S(=O)(=O)N2C)s1.O=C(O)CCC(=O)O", "ASSIGNED CATEGORY": "Criterion met"}
{"RECORD SMILES": "Cc1cnc(NC(=O)C2=C(O)c3ccccc3S(=O)(=O)N2C)s1.O=C(O)CCCC(=O)O", "ASSIGNED CATEGORY": "Criterion not met"}
{"RECORD SMILES": "Cc1cnc(NC(=O)C2=C(O)c3ccccc3S(=O)(=O)N2C)s1.O=C(O)c1ccccc1", "ASSIGNED CATEGORY": "Criterion met"}
{"RECORD SMILES": "Cc1cnc(NC(=O)C2=C(O)c3ccccc3S(=O)(=O)N2C)s1.O=C(O)c1ccccc1O", "ASSIGNED CATEGORY": "Criterion met"}
{"RECORD SMILES": "Cc1cnc(NC(=O)C2=C(O)c3ccccc3S(=O)(=O)N2C)s1.Cc1cnc(NC(=O)C2=C(O)c3ccccc3S(=O)(=O)N2C)s1.O=C(O)/C=C/C(=O)O", "ASSIGNED CATEGORY": "Criterion not met"}
{"RECORD SMILES": "Cc1cnc(NC(=O)C2=C(O)c3ccccc3S(=O)(=O)N2C)s1.O=C(O)CO", "ASSIGNED CATEGORY": "Criterion not met"}
{"RECORD SMILES": "Cc1cnc(NC(=O)C2=C(O)c3ccccc3S(=O)(=O)N2C)s1.Cc1cnc(NC(=O)C2=C(O)c3ccccc3S(=O)(=O)N2C)s1.O=C(O)CC(O)C(=O)O", "ASSIGNED CATEGORY": "Criterion met"}
{"RECORD SMILES": "Cc1cnc(NC(=O)C2=C(O)c3ccccc3S(=O)(=O)N2C)s1.Cc1cnc(NC(=O)C2=C(O)c3ccccc3S(=O)(=O)N2C)s1.O=C(O)C[C@H](O)C(=O)O", "ASSIGNED CATEGORY": "Criterion met"}
{"RECORD SMILES": "Cc1cnc(NC(=O)C2=C(O)c3ccccc3S(=O)(=O)N2C)s1.O=C(O)/C=C\\C(=O)O", "ASSIGNED CATEGORY": "Criterion met"}
{"RECORD SMILES": "Cc1cnc(NC(=O)C2=C(O)c3ccccc3S(=O)(=O)N2C)s1.O=C(O)CCc1ccccc1", "ASSIGNED CATEGORY": "Criterion not met"}
{"RECORD SMILES": "Cc1cnc(NC(=O)C2=C(O)c3ccccc3S(=O)(=O)N2C)s1.O=C(O)CC(=O)O", "ASSIGNED CATEGORY": "Criterion not met"}

Taken from patent US8389512B2.
